- PROCEDURE_DETAILS: LC-MS/MS of 5-MeO-DMT, bufotenine and 5-MIAA in breastmilk, serum and urine of a treated PPD patient; infant dose estimates
- RECORDED_CONDITIONS: female, human, serum, inhaled
PARAMETER_MEASURED: concentration at 2.5 h (ng/mL)
Unit ng/mL implied. Number only.

Look up concentration at 2.5 h of "COc1ccc2[nH]cc(CC(=O)O)c2c1" and report it.
102

----------
- PROCEDURE_DETAILS: LC-MS/MS of 5-MeO-DMT, bufotenine and 5-MIAA in breastmilk, serum and urine of a treated PPD patient; infant dose estimates
- RECORDED_CONDITIONS: female, human, urine, inhaled
PARAMETER_MEASURED: concentration at 2.5 h

Look up concentration at 2.5 h of "COc1ccc2[nH]cc(CC(=O)O)c2c1" and report it.
~13000 ng/mL
